The entries below are paired with their reported pKd.
target: IL-23 (human, p19/p40 heterodimer) (Homo sapiens, UniProt Q9NPF7;P29460 SEQ:20-189,SEQ:23-328); assay: filter; 0.1 mg/mL tRNA, 30 min RT; conditions: tags: R&D Systems, carrier free; label: 5'-32P
Sequence (Q9NPF7 20-189, chain 1 of 2): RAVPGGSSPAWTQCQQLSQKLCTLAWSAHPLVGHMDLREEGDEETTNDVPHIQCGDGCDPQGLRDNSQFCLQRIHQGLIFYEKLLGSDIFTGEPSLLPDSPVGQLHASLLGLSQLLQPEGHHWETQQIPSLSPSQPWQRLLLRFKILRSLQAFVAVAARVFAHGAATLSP
Sequence (P29460 23-328, chain 2 of 2): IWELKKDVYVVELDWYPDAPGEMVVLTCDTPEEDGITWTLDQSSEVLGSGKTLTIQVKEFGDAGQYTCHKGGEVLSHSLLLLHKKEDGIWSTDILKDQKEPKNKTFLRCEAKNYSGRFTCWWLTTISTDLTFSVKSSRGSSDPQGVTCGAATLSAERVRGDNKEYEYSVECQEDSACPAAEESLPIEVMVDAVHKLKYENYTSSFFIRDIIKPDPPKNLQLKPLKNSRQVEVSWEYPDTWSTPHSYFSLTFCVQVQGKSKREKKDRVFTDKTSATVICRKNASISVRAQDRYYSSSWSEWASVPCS
pKd: −log10 of the molar value.
reported property: pKd

>  <binder>
GGAGUACGCCGAAAGGCGCUUCCGAAAGGACGUCCGUAAGGGAUACUCC (ssRNA, 2'-F all C and U (rRfY)) [Type 1.5]

>  <reported property>
pKd

>  <meas value>
7.50

$$$$
>  <binder>
A10.min5 (ssRNA, 2'-F all C and U (rRfY)) RNA: GGAGCAUACACAAGAAGUUUUUUGUGCUCUGAGUACUCAGCGUCCGUAAGGGAUAUGCUCC

>  <reported property>
pKd

>  <meas value>
7.24

$$$$
>  <binder>
F11.min2 (ssRNA, 2'-F all C and U (rRfY)) RNA: GGACAUACACAAGAUGUGCUUGAGUUAAAUCUCAUCGUCCCCGUUUGGGGAUAUGUC

>  <reported property>
pKd

>  <meas value>
7.19

$$$$
>  <binder>
B10.min4 (ssRNA, 2'-F all C and U (rRfY)) RNA: GGAGCAUACACAAGAAGUGCUUCAUGCGGCAAACUGCAUGACGUCGAAUAGAUAUGCUCC

>  <reported property>
pKd

>  <meas value>
7.44

$$$$
